# Target of assay: EGFR (L858R/T790M/C797S) (Homo sapiens, UniProt P00533, C797S/L858R/T790M)
# Sequence (P00533 25-1210 T790M/C797S/L858R): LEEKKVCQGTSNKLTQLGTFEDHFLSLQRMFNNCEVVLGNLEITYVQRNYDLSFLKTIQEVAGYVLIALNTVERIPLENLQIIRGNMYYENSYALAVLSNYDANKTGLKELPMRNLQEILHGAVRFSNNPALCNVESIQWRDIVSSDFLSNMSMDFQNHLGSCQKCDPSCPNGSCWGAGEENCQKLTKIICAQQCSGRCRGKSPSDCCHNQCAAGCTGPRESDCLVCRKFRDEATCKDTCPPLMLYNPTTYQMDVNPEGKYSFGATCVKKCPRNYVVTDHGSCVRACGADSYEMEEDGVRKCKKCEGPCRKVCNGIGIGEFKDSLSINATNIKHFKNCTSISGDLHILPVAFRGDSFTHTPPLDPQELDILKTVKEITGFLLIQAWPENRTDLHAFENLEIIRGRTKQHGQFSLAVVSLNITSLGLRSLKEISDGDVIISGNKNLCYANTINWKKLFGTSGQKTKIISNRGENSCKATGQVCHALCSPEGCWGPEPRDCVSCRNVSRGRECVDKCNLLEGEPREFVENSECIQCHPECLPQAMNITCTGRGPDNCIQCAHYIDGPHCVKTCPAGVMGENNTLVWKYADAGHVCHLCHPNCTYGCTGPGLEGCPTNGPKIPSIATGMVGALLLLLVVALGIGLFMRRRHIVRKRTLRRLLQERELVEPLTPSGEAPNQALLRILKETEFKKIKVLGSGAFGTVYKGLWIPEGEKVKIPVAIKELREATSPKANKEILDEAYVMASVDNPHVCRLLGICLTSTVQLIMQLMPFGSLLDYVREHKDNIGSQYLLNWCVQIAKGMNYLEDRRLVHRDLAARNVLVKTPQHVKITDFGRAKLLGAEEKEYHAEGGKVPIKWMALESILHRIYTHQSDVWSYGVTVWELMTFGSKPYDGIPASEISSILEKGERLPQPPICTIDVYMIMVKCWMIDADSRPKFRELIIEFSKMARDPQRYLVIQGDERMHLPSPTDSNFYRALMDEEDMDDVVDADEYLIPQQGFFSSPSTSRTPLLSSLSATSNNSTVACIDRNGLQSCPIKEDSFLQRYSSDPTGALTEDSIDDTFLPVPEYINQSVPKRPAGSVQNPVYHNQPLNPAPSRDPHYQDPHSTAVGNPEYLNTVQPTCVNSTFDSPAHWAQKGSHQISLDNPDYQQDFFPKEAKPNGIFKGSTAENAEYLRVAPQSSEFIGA
# Assay method text: Cell degradation HTRF assay, BaF3-LTC cells
# Format: cell-based
# Set-up: expressed in transfected cells; host or cells: BaF3-LTC
# Test conditions: 16 h treatment, HTRF
Outcome measure: DC50 (nM)

Illustrative cases are given below, each with its answer.
Molecule	Outcome measure	Numeric readout
CCc1cc(Nc2ncc(Br)c(Nc3cnc4ccccc4c3P(C)(C)=O)n2)c(OC)cc1N1CCC(N2CCN(CCc3cccc4nn(C5CCC(=O)NC5=O)cc34)CC2)CC1 (centres unmarked)	DC50	546
CCc1cc(Nc2ncc(Br)c(Nc3cnc4ccccc4c3P(C)(C)=O)n2)c(OC)cc1N1CCC(N2CCN(C[C@H]3CCN(c4ccc5c(c4)CN(C4CCC(=O)NC4=O)C5=O)C3)CC2)CC1 (some centres unmarked)	DC50	7.75
CCc1cc(Nc2ncc(Br)c(Nc3cnc4c(C)cccc4c3P(C)(C)=O)n2)c(OC)cc1N1CCC(N2CCN(CCC3CCN(c4cc(F)c(C5CCC(=O)NC5=O)c(F)c4)CC3)CC2)CC1 (centres unmarked)	DC50	30.2

I: CCc1cc(Nc2ncc(Br)c(Nc3cnc4ccccc4c3P(C)(C)=O)n2)c(OC)cc1N1CCC(N2CCN(CCc3ccc4c(c3)C3(CC3)C(=O)N4C3CCC(=O)NC3=O)CC2)CC1 (centres unmarked)
II: CCc1cc(Nc2ncc(Br)c(Nc3cnc4ccccc4c3P(C)(C)=O)n2)c(OC)cc1N1CCC(N2CCN(CCc3ccc(C4CCC(=O)NC4=O)c(F)c3)CC2)CC1 (centres unmarked)
Qu. Hi team, can someone confirm which has the larger DC50: I or II ? Thanks. Give the chosen item's label as your response.
Ans. II
(II: 146 nM, I: 27.5 nM)
